Where these numbers come from: PubChem BioAssay (NCATS)

Assay: Primary qHTS for inhibitors of nuclear receptor binding SET domain protein 2 (NSD2) in an RCH-ACV wild type WT cells (2C) (AID 1645877); also: nearly all actives have a fitted effect of over 70% in size; also: potency is read from the fitted curve at half-maximal effect
Details: RCH-ACV (leukaemia line) NSD2 WT (2C) viability, CellTiter-Glo, 72 h; series mostly up to 44.9 µM
Inconclusive results are not listed. The source made the active and inactive calls. Calls follow the shape of the dose curve; as a rule, active = well fitted inhibition curve with a large enough effect; inconclusive = small, poorly fitted or top-dose-only effect; inactive = no such curve, though single readings can be large or run the other way.
property label: Potency

1. O=C(NOCC(O)CO)c1cc(Br)c(F)c(F)c1Nc1ccc(I)cc1F (stereo not given) : 20.9 µM (active)
2. CC1(C)CCC2=C(O1)c1ccccc1C(=O)C2=O : 9.34 µM (active)
3. C[C@@H](O)[C@H]1C(=O)N2C(C(=O)O)=C(S[C@@H]3CN[C@H](C(=O)N(C)C)C3)[C@H](C)[C@H]12 : inactive
4. O=C1NCC2(CCN(CCc3ccccc3)CC2)O1 : inactive
5. NC(CO)(CO)CCc1ccc(Sc2cccc(OCc3ccccc3)c2)cc1Cl : 7.42 µM (active)
6. COC(=O)[C@@H]1[C@H]2C[C@H]3c4[nH]c5ccccc5c4CCN3C[C@@H]2CC[C@@H]1O : inactive
7. CC[C@@]1(O)C[C@H](O[C@H]2C[C@H](N(C)C)[C@H](O[C@H]3C[C@H](O)[C@H](O[C@H]4CCC(=O)[C@H](C)O4)[C@H](C)O3)[C@H](C)O2)c2c(cc3c(c2O)C(=O)c2c(O)cccc2C3=O)[C@@H]1C(=O)OC : 1.18 µM (active)
8. Cc1cnc(C(=O)O)c[n+]1[O-] : inactive
9. CC(C)OC(=O)C(C)(C)Oc1ccc(C(=O)c2ccc(Cl)cc2)cc1 : inactive

Determine its reported Potency: `CC(C)[C@H](CO)Nc1nc(Nc2ccc(C(=O)O)c(Cl)c2)c2ncn(C(C)C)c2n1`
inactive
